Recorded measurements of CL, one per entry
- experiment-description: Non-renal clearance in nephrectomized Sprague-Dawley rat at 0.1 mg/kg, iv administered as cassette dose by LC-MS/MS analysis
- Format: ADME, organism-based
- assay-context: in vivo
Numbered stars: 1 amine (or outer) side, 2 acyl side, 3 side chain; on linkers, the order of the positions; unused ones are H or OH. Bridge positions count the residues as written; N and C are the ends. Square brackets hold non-standard residues; d marks the D form. Peptide text beside a SMILES is read from it. * marks the point of attachment. Phe(4-Cl) = N[C@@H](Cc1ccc(Cl)cc1)C(=O)O; 2Thi = N[C@@H](Cc1cccs1)C(=O)O; X2 = N=C(N)NCCC[C@H](CO)N*; hCys = N[C@@H](CCS)C(=O)O; Agmatine = N=C(N)NCCCCN*; X1 = O=C(CCC[*:2])[*:1]; X3 = O=C(CC[*:2])[*:1]; NEt2 = CCN(CC)*
property-label: CL (%)

• CC(C)[C@@H]1NC(=O)[C@H](Cc2cccs2)NC(=O)[C@H](Cc2ccc(Cl)cc2)NC(=O)CCCSC[C@@H](C(=O)N2CCC[C@H]2C(=O)NCCCCNC(=N)N)NC(=O)[C@H](CC(N)=O)NC1=O ([Phe(4-Cl)][2Thi]VNCP-Agmatine; linker N-5 via X1) = 57
• CCN(CC)C(=O)[C@@H](CCCNC(=N)N)NC(=O)[C@@H]1CCCN1C(=O)[C@@H]1CSCCCC(=O)N[C@@H](Cc2ccc(Cl)cc2)C(=O)N[C@@H](Cc2cccs2)C(=O)N[C@@H](C(C)C)C(=O)N[C@@H](CC(N)=O)C(=O)N1 ([Phe(4-Cl)][2Thi]VNCP[dR]-NEt2; linker N-5 via X1) = 60
• CC(C)[C@@H]1NC(=O)[C@H](Cc2cccs2)NC(=O)[C@H](Cc2ccc(Cl)cc2)NC(=O)CCSCC[C@@H](C(=O)N2CCC[C@H]2C(=O)N[C@@H](CO)CCCNC(=N)N)NC(=O)[C@H](CC(N)=O)NC1=O ([Phe(4-Cl)][2Thi]VN[hCys]P-X2; linker N-5 via X3) = 66
• CC(C)[C@@H]1NC(=O)[C@H](Cc2cccs2)NC(=O)[C@H](Cc2ccc(Cl)cc2)NC(=O)CCCSC[C@@H](C(=O)N2CSC[C@H]2C(=O)N[C@H](CCCNC(=N)N)C(=O)NCCc2cccs2)NC(=O)[C@H](CC(N)=O)NC1=O = 100

###

- experiment-description: Protein binding in rat plasma at 200 to 1000 ng/ml measured after 15 mins by UC-LC/MS/MS analysis
- Type: ADME, cell-free
- assay-context: read-out: PPB (converted)
Numbered stars: 1 amine (or outer) side, 2 acyl side, 3 side chain; on linkers, the order of the positions; unused ones are H or OH. Bridge positions count the residues as written; N and C are the ends. Square brackets hold non-standard residues; d marks the D form. Peptide text beside a SMILES is read from it. * marks the point of attachment. Phe(4-Cl) = N[C@@H](Cc1ccc(Cl)cc1)C(=O)O; Phe(4-F) = N[C@@H](Cc1ccc(F)cc1)C(=O)O; 2Thi = N[C@@H](Cc1cccs1)C(=O)O; X4 = N=C(N)NCCC[C@@H](CO)N*; X2 = N=C(N)NCCC[C@H](CO)N*; hCys = N[C@@H](CCS)C(=O)O; Agmatine = N=C(N)NCCCCN*; Thz = O=C(O)[C@@H]1CSCN1; X1 = O=C(CCC[*:2])[*:1]; X3 = O=C(CC[*:2])[*:1]
property-label: fraction unbound at […]

• CC(C)[C@@H]1NC(=O)[C@H](Cc2ccc(F)cc2)NC(=O)[C@H](Cc2ccc(Cl)cc2)NC(=O)CCCSC[C@@H](C(=O)N2CSC[C@H]2C(=O)N[C@H](CCCNC(=N)N)C(=O)NCCc2cccs2)NC(=O)[C@H](CC(N)=O)NC1=O = 0.04
• CC(C)[C@@H]1NC(=O)[C@H](Cc2cccs2)NC(=O)[C@H](Cc2ccc(Cl)cc2)NC(=O)CCCSC[C@@H](C(=O)N2CSC[C@H]2C(=O)N[C@H](CCCNC(=N)N)C(=O)NCc2ccccc2)NC(=O)[C@H](CC(N)=O)NC1=O = 0.09
• CC(C)CNC(=O)[C@H](CCCNC(=N)N)NC(=O)[C@@H]1CCCN1C(=O)[C@@H]1CSCCCC(=O)N[C@@H](Cc2ccc(Cl)cc2)C(=O)N[C@@H](Cc2cccs2)C(=O)N[C@@H](C(C)C)C(=O)N[C@@H](CC(N)=O)C(=O)N1 = 0.16
• CC(C)[C@@H]1NC(=O)[C@H](Cc2cccs2)NC(=O)[C@H](Cc2ccc(Cl)cc2)NC(=O)CCCSC[C@@H](C(=O)N2CCC[C@H]2C(=O)N[C@H](CCCNC(=N)N)C(=O)NCc2ccccc2)NC(=O)[C@H](CC(N)=O)NC1=O = 0.1
• CC(C)[C@@H]1NC(=O)[C@H](Cc2cccs2)NC(=O)[C@H](Cc2ccc(Cl)cc2)NC(=O)CCCSC[C@@H](C(=O)N2CSC[C@H]2C(=O)NCCCCNC(=N)N)NC(=O)[C@H](CC(N)=O)NC1=O ([Phe(4-Cl)][2Thi]VNC[Thz]-Agmatine; linker N-5 via X1) = 0.16
• CCNC(=O)[C@@H](CCCNC(=N)N)NC(=O)[C@@H]1C[C@@H](O)CN1C(=O)[C@@H]1CCSCCC(=O)N[C@@H](Cc2ccc(Cl)cc2)C(=O)N[C@@H](Cc2cccs2)C(=O)N[C@@H](C(C)C)C(=O)N[C@@H](CC(N)=O)C(=O)N1 = 0.1
• CNC(=O)[C@@H](CCCNC(=N)N)NC(=O)[C@@H]1CCCN1C(=O)[C@@H]1CSCCCC(=O)N[C@@H](Cc2ccc(Cl)cc2)C(=O)N[C@@H](Cc2cccs2)C(=O)N[C@@H](C(C)C)C(=O)N[C@@H](CC(N)=O)C(=O)N1 = 0.18
• CCNC(=O)[C@@H](CCCNC(=N)N)NC(=O)[C@@H]1CCCN1C(=O)[C@@H]1CSSCCC(=O)N[C@@H](Cc2ccc(Cl)cc2)C(=O)N[C@@H](Cc2ccccc2)C(=O)N[C@@H](C(C)C)C(=O)N[C@@H](CC(N)=O)C(=O)N1 = 0.05
• CC(C)[C@@H]1NC(=O)[C@H](Cc2cccs2)NC(=O)[C@H](Cc2ccc(Cl)cc2)NC(=O)CCSCC[C@@H](C(=O)N2CCC[C@H]2C(=O)N[C@@H](CO)CCCNC(=N)N)NC(=O)[C@H](CC(N)=O)NC1=O ([Phe(4-Cl)][2Thi]VN[hCys]P-X2; linker N-5 via X3) = 0.11
• CCNC(=O)[C@@H](CCCNC(=N)N)NC(=O)[C@@H]1CSCN1C(=O)[C@@H]1CCSCCC(=O)N[C@@H](Cc2ccc(Cl)cc2)C(=O)N[C@@H](Cc2cccs2)C(=O)N[C@@H](C(C)C)C(=O)N[C@@H](CC(N)=O)C(=O)N1 = 0.08
• CCCNC(=O)[C@@H](CCCNC(=N)N)NC(=O)[C@@H]1CSCN1C(=O)[C@@H]1CSCCCC(=O)N[C@@H](Cc2ccc(Cl)cc2)C(=O)N[C@@H](Cc2cccs2)C(=O)N[C@@H](C(C)C)C(=O)N[C@@H](CC(N)=O)C(=O)N1 = 0.17
• CC(C)[C@@H]1NC(=O)[C@H](Cc2ccc(F)cc2)NC(=O)[C@H](Cc2ccc(Cl)cc2)NC(=O)CCCSC[C@@H](C(=O)N2CCC[C@H]2C(=O)NCCCCNC(=N)N)NC(=O)[C@H](CC(N)=O)NC1=O ([Phe(4-Cl)][Phe(4-F)]VNCP-Agmatine; linker N-5 via X1) = 0.06
• CC(C)[C@@H]1NC(=O)[C@H](Cc2cccs2)NC(=O)[C@H](Cc2ccc(O)cc2)NC(=O)CCCSC[C@@H](C(=O)N2CCC[C@H]2C(=O)N[C@H](CO)CCCNC(=N)N)NC(=O)[C@H](CC(N)=O)NC1=O (Y[2Thi]VNCP-X4; linker N-5 via X1) = 0.85
• CC(C)CNC(=O)[C@@H](CCCNC(=N)N)NC(=O)[C@@H]1C[C@@H](O)CN1C(=O)[C@@H]1CCSCCC(=O)N[C@@H](Cc2ccc(Cl)cc2)C(=O)N[C@@H](Cc2cccs2)C(=O)N[C@@H](C(C)C)C(=O)N[C@@H](CC(N)=O)C(=O)N1 = 0.08
• CC(C)[C@@H]1NC(=O)[C@H](Cc2cccs2)NC(=O)[C@H](Cc2ccc(Cl)cc2)NC(=O)CCCSC[C@@H](C(=O)N2CCC[C@H]2C(=O)N[C@H](CCCNC(=N)N)C(=O)NC2CC2)NC(=O)[C@H](CC(N)=O)NC1=O = 0.09
• CCNC(=O)[C@@H](CCCNC(=N)N)NC(=O)[C@@H]1CCCN1C(=O)[C@@H]1CSSCCC(=O)N[C@@H](Cc2ccc(Cl)cc2)C(=O)N[C@@H](Cc2cccs2)C(=O)N[C@@H](C(C)C)C(=O)N[C@@H](CC(N)=O)C(=O)N1 = 0.12
